System: Eiysiphe graminis f. sp. tritici
Experiment: Test A: wheat powdery mildew, preventive spray on wheat seedlings
Assay type: in vivo
Details: wheat seedlings sprayed to run-off, inoculated the following day; rating relative to controls; unmarked compounds (standard test rate)
experimental readout: Test A disease control rating (100 = 100% disease control, 0 = no disease control) (%)
Supply the numeric figure in %, leaving out any unit text.

Record excerpt, results attached:
CCC1(C(=O)NCC(C)=Cc2cc(Cl)ccc2Cl)C(C)C1(Cl)Cl (centres unmarked)	77
CCC1(C(=O)NC(C)COc2ccc(Cl)c(F)c2)C(C)C1(Cl)Cl (centres unmarked)	0
CCC1(C(=O)NC(C)C=Cc2ccc(F)cc2)C(C)C1(Cl)Cl (mixture of isomers)	0
CCC1(C(=O)NC(C)COc2ccc(F)c(Cl)c2)C(C)C1(Cl)Cl (centres unmarked)	62

Incoming: Lab note: record Test A disease control rating (100 = 100% disease control, 0 = no disease control) of CCC1(C(=O)NC(C)COc2cc(F)cc(F)c2)C(C)C1(Cl)Cl (centres unmarked) tested on Eiysiphe graminis f. sp. tritici.
Outgoing: 0

Incoming: Lab note: record Test A disease control rating (100 = 100% disease control, 0 = no disease control) of CC(COc1ccccc1)NC(=O)C1(C)C(C)C1(Cl)Cl (mixture of isomers) tested on Eiysiphe graminis f. sp. tritici.
Outgoing: 84

Incoming: Lab note: record Test A disease control rating (100 = 100% disease control, 0 = no disease control) of CCC1(C(=O)NC(C)COc2c(Br)cc(F)cc2Br)C(C)C1(Cl)Cl (centres unmarked) tested on Eiysiphe graminis f. sp. tritici.
Outgoing: 0

Incoming: Lab note: record Test A disease control rating (100 = 100% disease control, 0 = no disease control) of CCC1(C(=O)NC(C)COc2cc(Cl)ccc2C#N)C(C)C1(Cl)Cl (centres unmarked) tested on Eiysiphe graminis f. sp. tritici.
Outgoing: 0

###

Reported Test C disease control rating (100 = 100% disease control, 0 = no disease control) values for the following molecules.
Test system: Pyricularia oryzae
Type: in vivo
Conditions: rice seedlings sprayed to run-off, inoculated the following day; rating relative to controls; unmarked compounds (standard test rate)
Supply the numeric figure in %, leaving out any unit text.

Record excerpt, results attached:
CC(COc1ccccc1Br)NC(=O)C1(C)CC1(Cl)Cl (mixture of isomers) [compound 313]	26
CCC1(C(=O)NC(C)COc2cc(Cl)ccc2F)C(C)C1(Cl)Cl (stereo not shown) [compound 252]	99
CCC1(C(=O)NC(C)COc2c(Br)cc(F)cc2Br)C(C)C1(Cl)Cl (stereo not shown) [compound 250]	52
CCC1(C(=O)NC(C)COc2cc(F)c(F)cc2F)C(C)C1(Cl)Cl (stereo not shown) [compound 236]	97
C=CC(C)(CF)C(C#N)C(=O)NC(C)COc1cc(Cl)ccc1Cl (mixture of isomers) [compound 219]	99
Cc1cccc(C#N)c1OCC(C)NC(=O)C(C#N)C(C)C(C)(C)C (mixture of isomers) [compound 280]	74
CC(C=Cc1cc(F)ccc1F)NC(=O)C(C#N)C(C)(C)C (single isomer, unassigned) [229a]	100
CC(COc1ccccc1)NC(=O)C1(C)CC1(Cl)Cl (mixture of isomers) [compound 311]	0

Incoming: Give the reported value of Test C disease control rating (100 = 100% disease control, 0 = no disease control) for this record: CCC1(C(=O)NC(C)COc2cc(Cl)c(Cl)cc2Cl)C(C)C1(Cl)Cl (stereo not shown) [compound 242]
Outgoing: 74

Incoming: Give the reported value of Test C disease control rating (100 = 100% disease control, 0 = no disease control) for this record: CCC1(C(=O)NC(C)COc2ccc(Cl)c(F)c2)C(C)C1(Cl)Cl (stereo not shown) [compound 231]
Outgoing: 97

Incoming: Give the reported value of Test C disease control rating (100 = 100% disease control, 0 = no disease control) for this record: C=C(F)C(C)(C)C(C#N)C(=O)NC(C)COc1cc(F)ccc1Cl (mixture of isomers) [compound 223]
Outgoing: 100

Incoming: Give the reported value of Test C disease control rating (100 = 100% disease control, 0 = no disease control) for this record: C=CCc1cccc(C#N)c1OCC(C)NC(=O)C(C#N)C(C)C(C)(C)C (mixture of isomers) [compound 275]
Outgoing: 53

Incoming: Give the reported value of Test C disease control rating (100 = 100% disease control, 0 = no disease control) for this record: CCC1(C(=O)NC(C)COc2cc(I)ccc2C#N)C(C)C1(Cl)Cl (stereo not shown) [compound 247]
Outgoing: 85

Incoming: Give the reported value of Test C disease control rating (100 = 100% disease control, 0 = no disease control) for this record: C#CC(C)(C=C)C(C#N)C(=O)NC(C)COc1cc(F)ccc1Cl (mixture of isomers) [compound 303]
Outgoing: 99

Incoming: Give the reported value of Test C disease control rating (100 = 100% disease control, 0 = no disease control) for this record: CC(COc1c(Cl)cccc1C#N)NC(=O)C(C#N)C(C)C(C)(C)C (mixture of isomers) [compound 281]
Outgoing: 53

Incoming: Give the reported value of Test C disease control rating (100 = 100% disease control, 0 = no disease control) for this record: C#CC(C)(C=C)C(C#N)C(=O)NC(C)COc1cc(Cl)ccc1F (mixture of isomers) [compound 302]
Outgoing: 99
